- System: murine leukemia L1210 cells
- assay.details: Cell growth inhibitory activity, L1210
- Assay type: cell-based
- protocol.conditions: Mus musculus, L1210, 48 h, read-out: IC50 (proliferation) L1210
measurement.type: IC50 (nM)
Use nM as the unit, but write only the number.

Sample answers from the record:
molecule	IC50, nM
COc1ccc2c(N)c(C(=O)c3cc(OC)c(OC)c(OC)c3)[nH]c2c1 [Compound 3a]	970
COc1ccc2c(N)c(C(=O)c3cc(OC)c(OC)c(OC)c3)n(C)c2c1 [Compound 4a]	69

Attention now shifts to the item below.
Exercise: Consider the molecule shown here: COc1ccc(/C=C\c2cc(OC)c(OC)c(OC)c2)cc1O [CA-4 (1), combretastatin A-4] What is its recorded IC50?
Key: 2.8
